Source listed as the supplement of paper PMC7184167.

test system: replication-induced senescent mouse newborn dermal fibroblasts (NBF); experiment: relative cell viability of senescent cells (fraction); higher = less killing of senescent cells; conditions: 1 µM; 3 days
Catalogue of relative cell viability values
Lab note: record just the number, no unit beside it.

• C[C@]12C=CC(=O)C=C1CC[C@@H]1[C@@H]2[C@@H](O)C[C@@]2(C)[C@H]1CC[C@]2(O)C(=O)CO = 1.01

The reported relative cell viability of the molecule C=CCNC1=C2C[C@@H](C)C[C@H](OC)[C@H](O)[C@@H](C)/C=C(\C)[C@H](OC(N)=O)[C@@H](OC)/C=C\C=C(/C)C(=O)NC(=CC1=O)C2=O was 0.966

The reported relative cell viability of the molecule C[C@]12C=CC(=O)C=C1CC[C@@H]1[C@@H]2C(=O)C[C@@]2(C)[C@H]1CC[C@]2(O)C(=O)CO was 0.875

----------
test system: replication-induced senescent mouse newborn dermal fibroblasts (NBF); assay: relative cell viability of senescent cells (fraction); higher = less killing of senescent cells; conditions: 1 µM; 3 days
Structures can show the parent of a compound that is named as a salt.
Label true when relative cell viability is strictly below 1; otherwise label false.

- NS(=O)(=O)c1cc2c(cc1Cl)N=CNS2(=O)=O [Chlorothiazide]: true
- CCC[C@H](NC(=O)[C@@H]1[C@H]2CCC[C@H]2CN1C(=O)[C@@H](NC(=O)[C@@H](NC(=O)c1cnccn1)C1CCCCC1)C(C)(C)C)C(=O)C(=O)NC1CC1: true
- Cc1nc(C(=O)NCC(=O)O)c(O)c2ccc(Oc3ccccc3)cc12: false
- CC1(C)O[C@@H]2C[C@H]3[C@@H]4CCC5=CC(=O)C=C[C@]5(C)[C@H]4[C@@H](O)C[C@]3(C)[C@]2(C(=O)CO)O1 [Desonide]: false
- CO[C@H]1/C=C/O[C@@]2(C)Oc3c(C)c(O)c4c(O)c(c(/C=N/N5CCN(C)CC5)c(O)c4c3C2=O)NC(=O)/C(C)=C\C=C\[C@H](C)[C@H](O)[C@@H](C)[C@@H](O)[C@@H](C)[C@H](OC(C)=O)[C@@H]1C: false
- CC(C)(C)c1cc(NC(=O)Nc2ccc(-c3cn4c(n3)sc3cc(OCCN5CCOCC5)ccc34)cc2)no1: true
- CC(C)NCC(O)COc1ccc(CCOCC2CC2)cc1 (stereo not drawn) [Betaxolol HCl]: false
- CC(=O)[C@H]1CC[C@H]2[C@@H]3CCC4=CC(=O)CC[C@]4(C)[C@H]3CC[C@]12C: true

Query :: Would you kindly verify if relative cell viability of C[C@@H](Oc1cc(-c2cnn(C3CCNCC3)c2)cnc1N)c1c(Cl)ccc(F)c1Cl is strictly less than 1?
Result :: true

Query :: Would you kindly verify if relative cell viability of COc1cc2nccc(Oc3ccc(NC(=O)Nc4cc(C)on4)c(Cl)c3)c2cc1OC is strictly less than 1?
Result :: false

Query :: Would you kindly verify if relative cell viability of Cn1cnc2c(F)c(Nc3ccc(Br)cc3Cl)c(C(=O)NOCCO)cc21 is strictly less than 1?
Result :: true

Query :: Would you kindly verify if relative cell viability of Cc1nc(=O)c2cc(CN(C)c3ccc(C(=O)N[C@@H](CCC(=O)O)C(=O)O)s3)ccc2[nH]1 is strictly less than 1?
Result :: true

Query :: Would you kindly verify if relative cell viability of COc1ccc([C@]2(C#N)CC[C@@H](C(=O)O)CC2)cc1OC1CCCC1 is strictly less than 1?
Result :: true

Query :: Would you kindly verify if relative cell viability of CC/C(=C(/CC)c1ccc(O)cc1)c1ccc(O)cc1 is strictly less than 1?
Result :: false

Query :: Would you kindly verify if relative cell viability of Cc1ccc(C(=O)Nc2ccc(CN3CCN(C)CC3)c(C(F)(F)F)c2)cc1C#Cc1cnc2cccnn12 is strictly less than 1?
Result :: true

Query :: Would you kindly verify if relative cell viability of O=C(c1cc(Cc2n[nH]c(=O)c3ccccc23)ccc1F)N1CCN(C(=O)C2CC2)CC1 is strictly less than 1?
Result :: false

Query :: Would you kindly verify if relative cell viability of COc1ccc(C2CNC(=O)C2)cc1OC1CCCC1 (stereo not drawn) is strictly less than 1?
Result :: false

Query :: Would you kindly verify if relative cell viability of CCCNC(C)C(=O)Nc1ccccc1C (stereo not drawn) is strictly less than 1?
Result :: true

Query :: Would you kindly verify if relative cell viability of CCCc1nc(C(C)(C)O)c(C(=O)OCc2oc(=O)oc2C)n1Cc1ccc(-c2ccccc2-c2nnn[nH]2)cc1 is strictly less than 1?
Result :: true

Query :: Would you kindly verify if relative cell viability of CN1CCC[C@@H]1CCO[C@](C)(c1ccccc1)c1ccc(Cl)cc1 [Clemastine Fumarate] is strictly less than 1?
Result :: false

Query :: Would you kindly verify if relative cell viability of Nc1nc2c(ncn2COCCO)c(=O)[nH]1 is strictly less than 1?
Result :: false

Query :: Would you kindly verify if relative cell viability of Nc1nc(F)nc2c1ncn2[C@@H]1O[C@H](CO)[C@@H](O)[C@@H]1O is strictly less than 1?
Result :: true

Query :: Would you kindly verify if relative cell viability of Nc1cccc2c1CN(C1CCC(=O)NC1=O)C2=O (stereo not drawn) [Lenalidomide (CC-5013)] is strictly less than 1?
Result :: false

Query :: Would you kindly verify if relative cell viability of c1ccc2c(CC3=NCCN3)cccc2c1 [Naphazoline HCl] is strictly less than 1?
Result :: true

----------
tested on: replication-induced senescent mouse newborn dermal fibroblasts (NBF); assay: relative cell viability of senescent cells (fraction); higher = less killing of senescent cells; conditions: 1 µM; 3 days
quantity_kind: relative cell viability
Lab note: record just the number, no unit beside it.

# annotated cases, reported relative cell viability shown
• COC(=O)C1=C(C)NC(C)=C(C(=O)OC)C1c1ccccc1[N+](=O)[O-] = 1.01
• CCN(CC)CC#CCOC(=O)C(O)(c1ccccc1)C1CCCCC1 (centres undefined) = 0.938
• CCOc1ccc(Cc2cc([C@@H]3O[C@H](CO)[C@@H](O)[C@H](O)[C@H]3O)ccc2Cl)cc1 = 1.2

The reported relative cell viability of the compound COc1nc(N)nc2c1ncn2[C@@H]1O[C@H](CO)[C@@H](O)[C@@H]1O was 1.08

The reported relative cell viability of the compound CCCCC(=O)N(Cc1ccc(-c2ccccc2-c2nnn[nH]2)cc1)[C@H](C(=O)O)C(C)C was 0.897

The reported relative cell viability of the compound COc1cc2/c(=N/c3ccc(Br)cc3F)nc[nH]c2cc1OCC1CCN(C)CC1 [Vandetanib (ZD6474)] was 0.464

The reported relative cell viability of the compound CCCCC1=NC2(CCCC2)C(=O)N1Cc1ccc(-c2ccccc2-c2nnn[nH]2)cc1 was 0.868

The reported relative cell viability of the compound Nc1nc2ccc(OC(F)(F)F)cc2s1 was 0.836

----------
system: replication-induced senescent mouse newborn dermal fibroblasts (NBF); assay: relative cell viability of senescent cells (fraction); higher = less killing of senescent cells; conditions: 1 µM; 3 days
Where a name gives a salt, the structure may show the parent alone.
Label Satisfied when relative cell viability is strictly below 0.9; otherwise label Not satisfied.

# example entries with known answers
- Clc1ccc2nsnc2c1NC1=NCCN1 [Tizanidine HCl]: Not satisfied
- Clc1ccc(CCC(Cn2ccnc2)Sc2c(Cl)cccc2Cl)cc1 (stereo not drawn) [Butoconazole nitrate]: Not satisfied
- C[C@@H](c1ncncc1F)[C@](O)(Cn1cncn1)c1ccc(F)cc1F: Not satisfied
- OCCN(CCO)c1nc(N2CCCCC2)c2nc(N(CCO)CCO)nc(N3CCCCC3)c2n1: Not satisfied
- CCOC(=O)C1=C(COCCN)NC(C)=C(C(=O)OC)C1c1ccccc1Cl (stereo not drawn) [Amlodipine Besylate]: Not satisfied
- CS(=O)(=O)CCNCc1ccc(-c2ccc3ncnc(Nc4ccc(OCc5cccc(F)c5)c(Cl)c4)c3c2)o1: Satisfied

Note: attention shifts to another entry.
Query :: Would you kindly verify if relative cell viability of C[C@H](N[C@@H](CCc1ccccc1)C(=O)O)C(=O)N1CCC[C@H]1C(=O)O [Enalaprilat Dihydrate] is strictly less than 0.9?
Result :: Satisfied

----------
Catalogue of relative cell viability values
test system: replication-induced senescent mouse newborn dermal fibroblasts (NBF); assay: relative cell viability of senescent cells (fraction); higher = less killing of senescent cells; conditions: 1 µM; 3 days
Where a name gives a salt, the structure may show the parent alone.

# annotated cases, reported relative cell viability shown
- CCN1CCN(C(=O)N[C@@H](C(=O)N[C@@H]2C(=O)N3C(C(=O)O)=C(CSc4nnnn4C)CS[C@H]23)c2ccc(O)cc2)C(=O)C1=O: 1.03
- COc1cc(C(=O)NS(=O)(=O)c2ccccc2C)ccc1Cc1cn(C)c2ccc(NC(=O)OC3CCCC3)cc12: 0.957
- O=C(c1ccccc1)c1ccc2n1CCC2C(=O)O (stereo not drawn): 0.977
- Cc1ccc(C(=O)N(CCCN)[C@@H](c2nc3cc(Cl)ccc3c(=O)n2Cc2ccccc2)C(C)C)cc1: 1.13

The reported relative cell viability of the molecule Cc1ccc(NC(=O)C2(c3ccc4c(c3)OC(F)(F)O4)CC2)nc1-c1cccc(C(=O)O)c1 was 0.838

The reported relative cell viability of the molecule CCn1cc(C(=O)O)c(=O)c2cc(F)c(N3CCN(C)CC3)cc21 [Pefloxacin Mesylate] was 0.993

The reported relative cell viability of the molecule COC(=O)C1=C(C)NC(C)=C(C(=O)OCC(C)C)C1c1ccccc1[N+](=O)[O-] (stereo not drawn) was 1.12

The reported relative cell viability of the molecule CCCOc1ccc(C(=O)OCCN(CC)CC)cc1N [Proparacaine HCl] was 0.992
